Overview of reported pIC50 across a group of compounds:
Target: Acyl-homoserine lactone acylase PvdQ [A190E,F674L] (Pseudomonas aeruginosa, UniProt Q9I194, A190E/F674L)
Sequence (Q9I194 whole entry, looked up, stated change not applied): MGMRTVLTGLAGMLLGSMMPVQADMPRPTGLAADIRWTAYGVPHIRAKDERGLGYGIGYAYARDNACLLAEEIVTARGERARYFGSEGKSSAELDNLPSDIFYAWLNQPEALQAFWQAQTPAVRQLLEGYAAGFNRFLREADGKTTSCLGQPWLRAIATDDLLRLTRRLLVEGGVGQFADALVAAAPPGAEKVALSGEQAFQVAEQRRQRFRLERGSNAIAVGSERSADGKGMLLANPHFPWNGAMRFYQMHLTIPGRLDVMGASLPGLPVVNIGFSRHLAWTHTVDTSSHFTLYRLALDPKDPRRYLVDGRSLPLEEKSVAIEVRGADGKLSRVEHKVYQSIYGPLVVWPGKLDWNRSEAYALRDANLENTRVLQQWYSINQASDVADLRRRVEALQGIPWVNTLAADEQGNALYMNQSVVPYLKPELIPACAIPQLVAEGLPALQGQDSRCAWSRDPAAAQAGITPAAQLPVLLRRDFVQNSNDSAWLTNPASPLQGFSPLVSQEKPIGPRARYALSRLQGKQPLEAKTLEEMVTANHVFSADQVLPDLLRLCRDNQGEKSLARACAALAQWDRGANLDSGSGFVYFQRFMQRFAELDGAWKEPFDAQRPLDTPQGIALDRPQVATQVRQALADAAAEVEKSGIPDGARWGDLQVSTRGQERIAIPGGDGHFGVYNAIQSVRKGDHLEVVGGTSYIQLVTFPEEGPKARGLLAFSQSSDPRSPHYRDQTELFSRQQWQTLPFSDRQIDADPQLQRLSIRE
Test: PvdQ IC50 Assay
pIC50: −log10 of the molar value.
Assay Metric: pIC50

>>> data_value("N#Cc1ccc(C(C#N)c2ccc(Cl)cc2Cl)nc1 (stereo unspecified)")
5.74
>>> data_value("N#CC(c1ccc(Cl)cc1)c1ccc(Cl)cn1 (stereo unspecified)")
6.89
>>> data_value("COCCC(C#N)c1ccc(F)cc1 (stereo unspecified)")
6.54
>>> data_value("N#CC(c1ccc(Cl)cc1)c1ccc(C(F)(F)F)cn1 (stereo unspecified)")
5.62
>>> data_value("COCCOCCC(C#N)c1ccc(Cl)cc1 (stereo unspecified)")
5.33
>>> data_value("N#CC(c1ccc(F)cc1)c1cccc(C(F)(F)F)n1 (stereo unspecified)")
7.70
>>> data_value("N#CC(CC1CC1)c1ccc(Cl)cc1 (stereo unspecified)")
6.27
>>> data_value("N#CC(c1cccc(Cl)n1)c1ccc(Cl)cc1Cl (stereo unspecified)")
6.60
>>> data_value("CC(C#N)(c1ccc(Cl)cc1)c1ccc(C(F)(F)F)cn1 (stereo unspecified)")
5.96
>>> data_value("N#CC(c1ccc(C(F)(F)F)cn1)c1ccc(Cl)cc1F (stereo unspecified)")
8.00
>>> data_value("N#Cc1ccc(C(C#N)c2ccc(Cl)cc2)nc1 (stereo unspecified)")
5.60
>>> data_value("Clc1ccc(C(c2cccc(Cl)n2)c2nnn[nH]2)cc1 (stereo unspecified)")
5.47
>>> data_value("N#CC(c1ccc(C(F)(F)F)cc1)c1cccc(C(F)(F)F)n1 (stereo unspecified)")
6.85
>>> data_value("N#CC(c1ccc(F)cc1)c1ccc(C(F)(F)F)c(Cl)n1 (stereo unspecified)")
6.13
>>> data_value("COCCC(C#N)c1ccc(Cl)cc1 (stereo unspecified)")
5.32
>>> data_value("N#Cc1cccc(C(C#N)c2ccc(Cl)cc2)n1 (stereo unspecified)")
6.74
>>> data_value("N#Cc1cccc(C(C#N)c2ccc(Cl)cc2F)n1 (stereo unspecified)")
6.96
>>> data_value("N#CC(c1ccc(Cl)cc1)c1cccc(C(F)(F)F)n1 (stereo unspecified)")
8.00
>>> data_value("CCCCC(C#N)c1ccccn1 (stereo unspecified)")
5.08
>>> data_value("N#CC(c1ccc(C(F)(F)F)cc1)c1cccc(Cl)n1 (stereo unspecified)")
6.41
>>> data_value("Cc1ccc(C(C#N)c2ccc(Cl)cc2)nc1C#N (stereo unspecified)")
6.74
>>> data_value("CCCCC(C#N)c1ccc(Cl)cn1 (stereo unspecified)")
5.42
>>> data_value("N#CC(c1cccc(Cl)n1)c1ccc(Cl)cc1F (stereo unspecified)")
7.22
>>> data_value("N#CC(c1ccc(Cl)cc1)c1ncccc1Cl (stereo unspecified)")
8.00
>>> data_value("CCCCC(C#N)c1ccc(F)cc1 (stereo unspecified)")
6.49
